target: human CXCR4 receptor (Homo sapiens); construct: expressed in transfected cells; test: Measurement of intracellular Ca+2 responses (FLIPR), antagonism of the SDF-1α response; type: cell-based; settings: percent antagonism of SDF-1α 1.9 nM (EC65) response; HEK-Gqi5 human CXCR4 cells; value in brackets
Sequence (P61073 whole entry): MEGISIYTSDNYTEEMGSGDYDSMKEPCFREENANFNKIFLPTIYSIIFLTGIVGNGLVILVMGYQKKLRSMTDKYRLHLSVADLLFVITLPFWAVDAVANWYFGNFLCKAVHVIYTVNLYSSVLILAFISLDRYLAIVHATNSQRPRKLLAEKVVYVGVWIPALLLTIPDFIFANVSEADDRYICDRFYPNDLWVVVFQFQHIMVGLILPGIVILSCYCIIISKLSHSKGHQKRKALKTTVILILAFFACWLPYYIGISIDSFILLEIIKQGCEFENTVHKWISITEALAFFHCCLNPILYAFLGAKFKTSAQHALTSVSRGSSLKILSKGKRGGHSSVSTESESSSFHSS
measured.metric: CXCR4 (% Inh) (%)
Kindly answer with a numeric value in %, unit omitted.

Below, each entry is followed by its recorded CXCR4 (% Inh) result.
- molecule: "COc1cccc(N(C)C)c1CN1CCC(Nc2nc(NC[C@@H]3CCN(C(=O)OC(C)(C)C)C3)nc3ccccc23)CC1 [Compound 112]"
  CXCR4 (% Inh) / %: 77
- molecule: "CCN(CC)CCCNc1nc(NC2CCN(Cc3ccccc3-n3ccnc3)CC2)c2ccccc2n1 [Compound 131]"
  CXCR4 (% Inh) / %: 74
- molecule: "CCN(CC)CCCNc1nc(NC2CCN(Cc3ccccc3-n3cccc3)CC2)c2ccccc2n1 [Compound 132]"
  CXCR4 (% Inh) / %: 84
- molecule: "COc1cc2nc(NCc3nccs3)nc(NC3CCN(Cc4c(OCCN(C)C)cccc4N(C)C)CC3)c2cc1OC [Compound 205]"
  CXCR4 (% Inh) / %: 100

get_value(item= COc1cc2nc(NCCN(C)C)nc(NC3CCN(Cc4c(OCCCN(C)C)cccc4N(C)C)CC3)c2cc1OC [Compound 203] , readout=CXCR4 (% Inh)) returns 94

Form: molecule = COc1cccc(N(C)C)c1CN1CCC(Nc2nc(NCc3ccccn3)nc3ccccc23)CC1 [Compound 84] ; CXCR4 (% Inh) = 95
